# credit: patent EP1247803A2

target: PDGF-R (Homo sapiens); assay: PDGF-R ELISA; format: cell-based
Sequence (P09619 33-1106, species assumed): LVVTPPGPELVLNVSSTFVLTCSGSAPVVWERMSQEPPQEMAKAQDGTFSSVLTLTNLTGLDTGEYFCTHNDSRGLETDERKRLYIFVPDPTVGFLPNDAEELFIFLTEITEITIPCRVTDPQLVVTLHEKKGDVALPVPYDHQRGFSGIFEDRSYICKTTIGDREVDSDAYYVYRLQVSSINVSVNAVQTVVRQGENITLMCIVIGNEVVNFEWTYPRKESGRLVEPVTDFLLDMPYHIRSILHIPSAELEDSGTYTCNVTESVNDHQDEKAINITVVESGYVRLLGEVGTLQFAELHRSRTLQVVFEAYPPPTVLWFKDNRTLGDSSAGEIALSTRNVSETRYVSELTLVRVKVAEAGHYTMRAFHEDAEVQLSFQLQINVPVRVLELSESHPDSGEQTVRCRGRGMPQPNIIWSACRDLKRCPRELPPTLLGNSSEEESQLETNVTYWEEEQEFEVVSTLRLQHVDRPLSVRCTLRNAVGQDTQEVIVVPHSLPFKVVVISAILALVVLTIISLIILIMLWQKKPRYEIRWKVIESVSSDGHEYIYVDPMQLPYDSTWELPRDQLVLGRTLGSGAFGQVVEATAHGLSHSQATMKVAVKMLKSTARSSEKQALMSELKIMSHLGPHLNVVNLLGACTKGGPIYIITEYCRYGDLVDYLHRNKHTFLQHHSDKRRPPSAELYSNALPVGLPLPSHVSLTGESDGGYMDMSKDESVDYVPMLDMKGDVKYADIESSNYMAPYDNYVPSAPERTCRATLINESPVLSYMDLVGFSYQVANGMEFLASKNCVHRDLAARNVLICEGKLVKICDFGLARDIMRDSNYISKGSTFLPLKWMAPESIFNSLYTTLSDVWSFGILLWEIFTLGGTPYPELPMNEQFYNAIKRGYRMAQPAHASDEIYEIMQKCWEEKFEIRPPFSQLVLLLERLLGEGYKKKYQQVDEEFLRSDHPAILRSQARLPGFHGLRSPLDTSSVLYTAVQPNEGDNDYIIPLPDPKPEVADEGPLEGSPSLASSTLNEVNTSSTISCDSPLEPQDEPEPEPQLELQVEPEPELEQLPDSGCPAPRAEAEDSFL
Would you kindly list PDGF Kinase %Inhibition for each of these compounds?
State the value, then name its unit.

The following compounds have reported results that may help.
N#Cc1ccc(C=C2C(=O)Nc3ccc(CCCl)cc32)cc1; 10.8%
COc1c(C(C)C)cc(C=C2C(=O)Nc3ccc(I)cc32)cc1C(C)C; 17.4%
COc1cc(C=C2C(=O)Nc3c(Br)cc(Br)cc32)cc(OC)c1OC; -5.1%
Cc1cn(C)cc1C=C1C(=O)Nc2ccc(I)cc21; 34.1%

Hello, I would appreciate it if you could give PDGF Kinase %Inhibition for each entry below.
1. O=C1Nc2ccc(I)cc2C1=Cc1cc(C(F)(F)F)ccc1F
2. Cc1c(Br)ccc2c1C(=Cc1ccc(N3CCN(C=O)CC3)cc1)C(=O)N2
3. CCOC(=O)c1[nH]c(C=C2C(=O)Nc3ccc(I)cc32)c(C(=O)OC)c1C
4. COc1ccc(C=C2C(=O)Nc3ccc(CCCl)cc32)c(O)c1
5. O=C1Nc2ccc(I)cc2C1=Cc1c(O)cc(O)cc1O

**A:**
1. -6.6%
2. 107.0%
3. 16.4%
4. -2.9%
5. 3.7%

====

Consider the following compounds; for each one, report its PDGF Kinase %Inhibition.
target: PDGF-R (Homo sapiens); test: PDGF-R ELISA; format: cell-based
Answers are plain numbers, in %.

Worked cases, answers included:
CC(C)(C)c1cc(C=C2C(=O)Nc3ccc(CCCl)cc32)cc(C(C)(C)C)c1OCc1ccccc1; -1.1
CNS(=O)(=O)c1ccc2c(c1)C(=Cc1ccccc1Sc1ccc(Cl)cc1)C(=O)N2; -0.1
CNS(=O)(=O)c1ccc2c(c1)C(=Cc1c(OC)ccc3ccccc13)C(=O)N2; 15.6

State recorded PDGF Kinase %Inhibition for all listed compounds.
1. Cc1c(Br)ccc2c1C(=C1C(=O)Nc3ccc(F)cc31)C(=O)N2
2. CCc1ccc(C=C2C(=O)Nc3ccc(I)cc32)s1

**A:**
21.4
6.2

====

Could you please report measured Fik Kinase %Inhibition for the items listed next?
molecular target: FLK-1 receptor (Mus musculus, UniProt P35918); construct: expressed in transfected cells; host or cells: NIH3T3 C7#3; assay: FLK-1 ELISA (kinase activity of the FLK-1 receptor in FLK-1/NIH3T3 cells, VEGF stimulated); assay type: cell-based
Sequence (P35918 20-1345): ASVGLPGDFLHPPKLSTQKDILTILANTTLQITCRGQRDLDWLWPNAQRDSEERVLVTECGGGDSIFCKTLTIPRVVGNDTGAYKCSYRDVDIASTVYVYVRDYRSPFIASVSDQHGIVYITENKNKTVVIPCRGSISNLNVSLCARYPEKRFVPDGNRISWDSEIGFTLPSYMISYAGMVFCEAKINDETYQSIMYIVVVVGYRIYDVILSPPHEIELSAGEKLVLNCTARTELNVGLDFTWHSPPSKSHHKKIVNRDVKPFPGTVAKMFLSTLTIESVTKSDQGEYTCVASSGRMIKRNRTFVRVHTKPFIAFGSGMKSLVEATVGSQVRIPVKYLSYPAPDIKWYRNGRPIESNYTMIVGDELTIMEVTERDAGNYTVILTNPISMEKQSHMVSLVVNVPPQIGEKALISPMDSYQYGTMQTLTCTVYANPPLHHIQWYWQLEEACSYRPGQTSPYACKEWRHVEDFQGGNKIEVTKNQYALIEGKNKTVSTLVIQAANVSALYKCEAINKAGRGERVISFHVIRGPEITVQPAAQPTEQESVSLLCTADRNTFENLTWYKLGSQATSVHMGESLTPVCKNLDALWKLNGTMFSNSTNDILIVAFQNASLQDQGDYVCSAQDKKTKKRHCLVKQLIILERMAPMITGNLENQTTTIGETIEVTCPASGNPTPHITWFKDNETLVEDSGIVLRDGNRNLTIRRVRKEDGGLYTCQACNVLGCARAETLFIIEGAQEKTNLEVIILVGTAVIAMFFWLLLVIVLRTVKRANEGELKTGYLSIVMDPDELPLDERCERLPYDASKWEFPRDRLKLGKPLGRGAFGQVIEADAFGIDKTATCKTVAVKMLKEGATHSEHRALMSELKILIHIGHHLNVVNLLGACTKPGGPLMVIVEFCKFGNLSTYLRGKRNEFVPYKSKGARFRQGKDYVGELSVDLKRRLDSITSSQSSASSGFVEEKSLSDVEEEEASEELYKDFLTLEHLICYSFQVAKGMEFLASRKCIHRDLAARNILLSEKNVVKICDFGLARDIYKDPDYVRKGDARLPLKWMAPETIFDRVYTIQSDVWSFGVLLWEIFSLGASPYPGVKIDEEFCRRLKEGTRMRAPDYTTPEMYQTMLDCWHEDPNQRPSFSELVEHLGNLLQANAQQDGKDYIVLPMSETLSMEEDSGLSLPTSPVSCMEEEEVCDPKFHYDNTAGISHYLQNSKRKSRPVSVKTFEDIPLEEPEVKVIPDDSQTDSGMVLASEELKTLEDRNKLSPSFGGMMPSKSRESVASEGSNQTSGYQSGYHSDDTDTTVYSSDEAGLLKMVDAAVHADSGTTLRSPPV
Numbers only, in %.

CCOC(=O)c1c(C)[nH]c(C=C2C(=O)Nc3ccc(S(=O)(=O)N4CCOCC4)cc32)c1C; 20.1
COc1c(I)cc(C=C2C(=O)Nc3ccc(I)cc32)cc1C(C)(C)C; 9.0
Cc1cc(C)c(C=C2C(=O)Nc3ccc(I)cc32)[nH]1; 18.5
COc1c(C(C)C)cc(C=C2C(=O)Nc3ccc(Br)c(C)c32)cc1C(C)C; 14.7
Cc1ccc(C=C2C(=O)Nc3ccc(S(=O)(=O)Nc4ccc(C(F)(F)F)cc4)cc32)o1; -38.8

Can you give me Fik Kinase %Inhibition for all of these, one by one?
1. Cc1cc(C=C2C(=O)Nc3ccc(CCCl)cc32)cc(C(C)(C)C)c1O
2. O=C1Nc2c(Br)cc(Br)cc2C1=Cc1ccc(C(F)(F)F)cc1
3. O=C1Nc2c(Br)cc(Br)cc2C1=Cc1ccc([N+](=O)[O-])o1
4. N#Cc1cccc(C=C2C(=O)Nc3ccc(I)cc32)c1
5. O=C1Nc2c(Br)cc(Br)cc2C1=Cc1cc2c3c(c1O)CCCN3CCC2
6. CC(C)c1ccc2occ(C=C3C(=O)Nc4ccc(CCCl)cc43)c(=O)c2c1
7. Cc1cn(C)cc1C=C1C(=O)Nc2ccc(Br)c(C)c21
8. O=C1Nc2ccc(S(=O)(=O)N3CCOCC3)cc2C1=Cc1cc(Br)ccc1O

**A:**
1: 9.7; 2: 6.7; 3: 2.7; 4: 4.0; 5: -15.2; 6: 17.5; 7: 23.8; 8: -2.1

Hi team, please reply with Fik Kinase %Inhibition for each item in this list.
1. COc1cc(OC)c(C=C2C(=O)Nc3ccc(Br)c(C)c32)c(OC)c1
2. Cc1c(Br)ccc2c1C(=Cc1cc([N+](=O)[O-])cc(CCl)c1O)C(=O)N2
3. O=C1Nc2ccc(S(=O)(=O)N3CCOCC3)cc2C1=Cc1coc2ccccc2c1=O
4. O=C1Nc2ccc(CCCl)cc2C1=Cc1ccc(-c2ccccc2Cl)o1

**A:**
47.7
14.4
21.4
8.3

Consider the following items and state reported Fik Kinase %Inhibition for each.
1. COc1c(C(C)(C)C)cc(C=C2C(=O)Nc3ccc(Br)c(C)c32)cc1C(C)(C)C
2. CNS(=O)(=O)c1ccc2c(c1)C(=Cc1cc(Br)cc(OC)c1O)C(=O)N2
3. O=C1Nc2ccc(I)cc2C1=Cc1ccccc1
4. COC(=O)Cc1c(Cl)[nH]c(C=C2C(=O)Nc3ccc(CCCl)cc32)c1C(=O)OC

**A:**
1: 8.4; 2: -8.3; 3: 7.3; 4: 15.2
